System: HepG2
assay overview: Tested in vitro for hepatoprotective effect of 10 ug/ml of compound on cell growth and lesions in Hep G2 cells treated with aflatoxin B1 (10 e -5 M)
Format: functional, Homo sapiens
Rule: Protection below 2% gives 1. Equal to or above 2% gives -1.

Examples from the recorded data:
# compound, assigned label
measured = [
    ("CC(=O)O[C@@H]1CC(C)(C)C[C@H]2C3=CCC4[C@@]5(C)CC[C@H](O)[C@](C)(CO)C5CC[C@@]4(C)[C@]3(C)CC[C@@]12C (stereo partly specified)", -1),
    ("CC1(C)C[C@@H](O)[C@]2(C)CC[C@]3(C)C(=CCC4[C@@]5(C)CC[C@H](O)C(C)(C)C5CC[C@]43C)[C@@H]2C1 (stereo partly specified)", -1),
    ("CC(=O)O[C@H]1CC[C@@]2(C)C(CC[C@]3(C)C2CC=C2[C@@H]4CC(C)(C)C[C@@H](O)[C@]4(C)CC[C@]23C)[C@@]1(C)CO (stereo partly specified)", 1),
    ("CC1(C)C[C@@H](O)[C@]2(C)CC[C@]3(C)C(=CCC4[C@@]5(C)CC[C@H](O)[C@](C)(CO)C5CC[C@]43C)[C@@H]2C1 (stereo partly specified)", -1),
]

Turning to the following compound.
Is Protection strictly under 2% for the entry CC1(C)CC[C@]2(C)CC[C@]3(C)C(=CCC4[C@@]5(C)CC[C@H](O)[C@](C)(CO)C5CC[C@]43C)[C@@H]2C1 (stereo partly specified) ?
-1

Attribution: ChEMBL document CHEMBL1130331
